- System: ATP;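 also: ATP exposure 15 min at 22 °C before imaging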
- ASSAY TEXT: switch fluorescence ratio, 500 uM ATP over buffer (Cy3 cluster intensity, sum of 5 cycles each) (fold (ratio)); higher = stronger signal-on switching upon ATP binding; sequences stand for … in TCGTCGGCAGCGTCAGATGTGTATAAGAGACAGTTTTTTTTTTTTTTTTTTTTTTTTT…TC
- RUN PARAMETERS: aptamer strand: ATP DNA aptamer (quencher-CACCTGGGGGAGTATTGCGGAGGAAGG + anchor), 100 nM annealed; ATP concentration: 500 uM
MEASURED PROPERTY: switch fluorescence ratio
// return just the number, without any unit appended

Here is how some sequences turned out for switch fluorescence ratio.
[[record]]
item_sequence = "TGTGAGATTG"
measured_property = "switch fluorescence ratio"
readout_value = 1

[[record]]
item_sequence = "CGCCCCGCTG"
measured_property = "switch fluorescence ratio"
readout_value = 1.13

[[record]]
item_sequence = "CAGGGTTCCG"
measured_property = "switch fluorescence ratio"
readout_value = 1.17


Missing value: switch fluorescence ratio, ATP, entry `TTAAGGAGTG` . Fill in?
0.95

Request: switch fluorescence ratio, test system ATP, entry `GCGCGAGGGG`;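 also: ATP exposure 15 min at 22 °C before imaging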
1.01

Enter reported switch fluorescence ratio observed with ATP for `GCTATGGTTA`
1

Requested read-out switch fluorescence ratio, target or system ATP, entry `ATGCGGGGGC`;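 also: ATP exposure 15 min at 22 °C before imaging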
1.05

Notebook entry, ATP assay: switch fluorescence ratio of `TGTTCGTCGT` = ?
0.969

Please provide the recorded switch fluorescence ratio for `TACTGCTCTA` , tested on ATP.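 Also: ATP exposure 15 min at 22 °C before imaging.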
1.02

Quick check: switch fluorescence ratio on ATP, item `TTTGCTCAGG` ?
1.09

###

- Test system: ATP;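 also: ATP exposure 15 min at 22 °C before imaging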
- ASSAY TEXT: switch fluorescence ratio, 500 uM ATP over buffer (Cy3 cluster intensity, sum of 5 cycles each) (fold (ratio)); higher = stronger signal-on switching upon ATP binding; sequences stand for … in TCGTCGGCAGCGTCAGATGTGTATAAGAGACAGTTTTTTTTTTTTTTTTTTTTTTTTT…TC
- RUN PARAMETERS: aptamer strand: ATP DNA aptamer (quencher-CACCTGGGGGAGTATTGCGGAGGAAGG + anchor), 100 nM annealed; ATP concentration: 500 uM
MEASURED PROPERTY: switch fluorescence ratio
Lab note: write the figure by itself, no unit.

Worked cases, switch fluorescence ratio given:
[[record]]
item_sequence = "CAGGTTTTTG"
readout_value = 0.983

[[record]]
item_sequence = "TCCTGAGGCG"
readout_value = 1.02

[[record]]
item_sequence = "TTGGGGGAGT"
readout_value = 1.03

[[record]]
item_sequence = "GGTTTTGATT"
readout_value = 0.998

[[record]]
item_sequence = "GCGGGGTCGG"
readout_value = 1.01

[[record]]
item_sequence = "ATTGATTGAG"
readout_value = 0.986


Please look up its switch fluorescence ratio: `TGGGTGGGTC`
1.05

Entry `ACTGGTATAG` has what switch fluorescence ratio?
1.04

Look at this sequence and give its reported switch fluorescence ratio. `GTTAGAAAAT`
1.01

Quick check: switch fluorescence ratio of `CCGGGGGCCT` ?
1.08

###

- Test system: ATP;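 also: ATP exposure 15 min at 22 °C before imaging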
- ASSAY TEXT: switch fluorescence ratio, 500 uM ATP over buffer (Cy3 cluster intensity, sum of 5 cycles each) (fold (ratio)); higher = stronger signal-on switching upon ATP binding; sequences stand for … in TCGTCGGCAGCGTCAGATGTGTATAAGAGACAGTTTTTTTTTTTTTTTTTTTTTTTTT…TC
- RUN PARAMETERS: aptamer strand: ATP DNA aptamer (quencher-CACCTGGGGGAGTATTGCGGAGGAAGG + anchor), 100 nM annealed; ATP concentration: 500 uM
Measured switch fluorescence ratio values are reported for all entries that follow.

Worked examples, 4 sequences total:
[[record]]
item_sequence = "CTTAATCACT"
readout_value = 1.03

[[record]]
item_sequence = "GAGCCGGGTA"
readout_value = 0.998

[[record]]
item_sequence = "TATAATAGTT"
readout_value = 0.965

[[record]]
item_sequence = "GGCTATTGAT"
readout_value = 1


Look at this sequence and give its reported switch fluorescence ratio. `CTGGGGAAAA`
1.57

Look up switch fluorescence ratio for this sequence: `TGACGAAGGG`
0.987

Report switch fluorescence ratio for `TGGGGGTTTA` please.
1.03

Consider the sequence `AAGTCGGATG` and give its measured switch fluorescence ratio.
1.04

Give the measured switch fluorescence ratio of `GGGGGGAAAA` .
0.986

Given the sequence `TGCCCGCCCT` , what is its reported switch fluorescence ratio?
1.08

Param item = `AGGTCATGTA` ; retrieve measured switch fluorescence ratio.
1.01

Suppose we examine the sequence `CTTCTTGCTG` ; what switch fluorescence ratio value has been reported?
0.972

Consider the sequence `TCAGAGGGCA` and give its measured switch fluorescence ratio.
1

###

# Lookup of reported switch fluorescence ratio keyed by entry
- System: ATP;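 also: ATP exposure 15 min at 22 °C before imaging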
- ASSAY TEXT: switch fluorescence ratio, 500 uM ATP over buffer (Cy3 cluster intensity, sum of 5 cycles each) (fold (ratio)); higher = stronger signal-on switching upon ATP binding; sequences stand for … in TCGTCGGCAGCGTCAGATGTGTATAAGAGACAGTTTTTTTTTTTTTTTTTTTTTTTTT…TC
- RUN PARAMETERS: aptamer strand: ATP DNA aptamer (quencher-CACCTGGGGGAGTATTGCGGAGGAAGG + anchor), 100 nM annealed; ATP concentration: 500 uM
Give a plain numeric answer without units written out.

Use the examples below as a reference point.
[[record]]
item_sequence = "GTGGGGGGAT"
readout_value = 0.999

[[record]]
item_sequence = "CGGGGGGA"
readout_value = 1.39

[[record]]
item_sequence = "TCAGGAGTCG"
readout_value = 1.02

[[record]]
item_sequence = "CGGTCGGTTG"
readout_value = 1.06

[[record]]
item_sequence = "TGGGTACTTT"
readout_value = 0.994


# query: switch fluorescence ratio of entry `TTATTCCATA`
0.984

Need switch fluorescence ratio, item `ATGGGGGGTT`
1.01

GET /values?readout=switch fluorescence ratio&item= `GGCGCGTGTC`
0.995

Give the measured switch fluorescence ratio of `TATGATTACG` .
1.03

###

- Test system: ATP;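 also: ATP exposure 15 min at 22 °C before imaging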
- ASSAY TEXT: switch fluorescence ratio, 500 uM ATP over buffer (Cy3 cluster intensity, sum of 5 cycles each) (fold (ratio)); higher = stronger signal-on switching upon ATP binding; sequences stand for … in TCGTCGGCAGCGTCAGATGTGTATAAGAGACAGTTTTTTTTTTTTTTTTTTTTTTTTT…TC
- RUN PARAMETERS: aptamer strand: ATP DNA aptamer (quencher-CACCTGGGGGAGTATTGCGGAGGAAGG + anchor), 100 nM annealed; ATP concentration: 500 uM
MEASURED PROPERTY: switch fluorescence ratio
Form field (numeric): enter value without unit.

[[record]]
item_sequence = "CGGGGGGGAG"
readout_value = 1.01

[[record]]
item_sequence = "AACGTTTAGG"
readout_value = 1.01

[[record]]
item_sequence = "GGGCTAGTTA"
readout_value = 0.995


API: the following record is the query input.
Returns the measured switch fluorescence ratio for the input sequence. Input: `AAAAGAATAT`
1

###

- Tested on: ATP;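 also: ATP exposure 15 min at 22 °C before imaging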
- ASSAY TEXT: switch fluorescence ratio, 500 uM ATP over buffer (Cy3 cluster intensity, sum of 5 cycles each) (fold (ratio)); higher = stronger signal-on switching upon ATP binding; sequences stand for … in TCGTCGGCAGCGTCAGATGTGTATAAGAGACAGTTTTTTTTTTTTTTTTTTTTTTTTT…TC
- RUN PARAMETERS: aptamer strand: ATP DNA aptamer (quencher-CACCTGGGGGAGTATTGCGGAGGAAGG + anchor), 100 nM annealed; ATP concentration: 500 uM
MEASURED PROPERTY: switch fluorescence ratio
Please reply with the number alone, leaving off any unit.

Solved entries:
[[record]]
item_sequence = "AAAAGTCAAT"
system_tested = "ATP"
measured_property = "switch fluorescence ratio"
readout_value = 1

[[record]]
item_sequence = "TGGAGGAAGA"
system_tested = "ATP"
measured_property = "switch fluorescence ratio"
readout_value = 1.04

[[record]]
item_sequence = "GGTTCTGGCG"
system_tested = "ATP"
measured_property = "switch fluorescence ratio"
readout_value = 0.992

[[record]]
item_sequence = "TCTAAGGGGG"
system_tested = "ATP"
measured_property = "switch fluorescence ratio"
readout_value = 1.02

[[record]]
item_sequence = "CCTAGGCCCG"
system_tested = "ATP"
measured_property = "switch fluorescence ratio"
readout_value = 1.03


// switch fluorescence ratio lookup, key: `AACTGGGGGG`
1

Name the recorded switch fluorescence ratio for `TGTTCGGGTG` .
1.05

Report switch fluorescence ratio for `TTCTAATGAG` please.
0.998

Suppose we examine the sequence `TCCTACTGGG` ; what switch fluorescence ratio value has been reported?
1.04

Give the measured switch fluorescence ratio of `GTTCCTCATT` .
1.45

What does the data say about its switch fluorescence ratio? Entry: `GCATGAAAAC`
1.03

Consider the sequence shown here: `TCAGGGAGTG` What is its recorded switch fluorescence ratio?
0.976
